These measurements were taken from patent US10800792B2.

Molecular target: unphosphorylated-BTK kinase domain (UP-BTK), GST-tagged human BTK (389-659aa) (Homo sapiens (Human), UniProt Q06187)
Sequence (Q06187 389-659): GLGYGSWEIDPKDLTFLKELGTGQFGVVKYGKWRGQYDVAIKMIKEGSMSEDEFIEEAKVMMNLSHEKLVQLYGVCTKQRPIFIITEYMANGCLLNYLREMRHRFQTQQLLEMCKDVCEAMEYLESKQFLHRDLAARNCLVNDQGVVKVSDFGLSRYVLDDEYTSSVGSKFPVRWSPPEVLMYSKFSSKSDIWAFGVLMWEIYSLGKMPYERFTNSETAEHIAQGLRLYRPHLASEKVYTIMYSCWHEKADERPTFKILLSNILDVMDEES
Assay: BTK kinase Lanthascreen binding assay
Settings: unphosphorylated-BTK kinase domain, 60 minutes incubation, 50 nM Tracer 236; pIC50 = negative log of the IC50 in molar
measured.endpoint: BTK_I_binding pIC50

compound	BTK_I_binding pIC50
CC(C)(C)c1ccc(N2C(=O)Nc3c(C(=O)N[C@@H]4CCCNC4)sc4nccc2c34)cc1	5.0
O=C(NC1CCNC1)c1sc2nccc3c2c1NC(=O)N3c1ccc(Oc2ccccc2)cc1 (stereo in doubt)	6.1
CNCC(=O)N1CCC[C@@H](NC(=O)c2sc3nccc4c3c2NC(=O)N4c2ccc(OC(C)C)cc2C)C1	6.3
C=CC(=O)N1CCC[C@@H](NC(=O)c2sc3nccc4c3c2NC(=O)N4c2ccc(N)cc2)C1	5.2
CN(C)c1ccc(N2C(=O)Nc3c(C(=O)N[C@@H]4CCCNC4)sc4nccc2c34)cc1	5.2
Cc1cc(Oc2ccccc2)ccc1N1C(=O)Nc2c(C(=O)N[C@H]3CCCN(C(=O)/C(C#N)=C/C(C)(C)C)C3)sc3nccc1c23	6.7

* * *

Molecular target: unphosphorylated-BTK kinase domain (UP-BTK), GST-tagged human BTK (389-659aa) (Homo sapiens (Human))
Assay: BTK kinase Lanthascreen binding assay
Conditions: Lanthascreen tracer competition, 60 minutes incubation; pIC50 = negative log of the IC50 in molar; read-out: BTK_I_binding pIC50 (converted)
measured.endpoint: IC50 (nM)

1: C=CC(=O)N[C@@H]1COC[C@@H]1NC(=O)c1sc2nccc3c2c1NC(=O)N3c1cnc(Oc2ccccc2)cc1C (single isomer, unassigned) [Example 752]
2: O=C(N[C@@H]1CCNC[C@@H]1O)c1sc2nccc3c2c1NC(=O)N3c1ccc(Oc2ccccc2)cc1 (relative stereo) [Example 659]
**Q:** Endpoint returns whichever of 1 and 2 has the numerically higher IC50. # answer = label of selected item
**A:** 1

* * *

Target: unphosphorylated-BTK kinase domain (UP-BTK), GST-tagged human BTK (389-659aa) (Homo sapiens (Human))
Assay: BTK kinase Lanthascreen binding assay
Conditions: unphosphorylated-BTK kinase domain, 50 nM Tracer 236, 60 minutes; pIC50 = negative log of the IC50 in molar
measured.endpoint: BTK_I_binding pIC50

compound	BTK_I_binding pIC50
C=CC(=O)N1C[C@H](NC(=O)c2sc3nccc4c3c2NC(=O)N4c2ccc(Oc3ccccc3)cc2)[C@@H](O)C1 [Example 463]	7.9
C=CC(=O)N1CCC[C@@H](NC(=O)c2sc3nccc4c3c2NC(=O)N4c2ccc(OC(C)C)cc2)C1 [Example 400]	6.9
Cc1cccc(-c2cccc(N3C(=O)Nc4c(C(=O)N[C@@H]5CCCNC5)sc5nccc3c45)c2)c1 [Example 553]	6.8
C=CC(=O)N1CCC[C@@H](NC(=O)c2sc3nccc4c3c2NC(=O)N4c2cccc(Oc3ccccc3)c2)C1 [Example 527]	8.1
C=CC(=O)N1CC[C@@H](NC(=O)c2sc3nccc4c3c2NC(=O)N4c2ccccc2C)C1 [Example 314]	5.9
CN(C)C/C=C/C(=O)N1CCC[C@@H](NC(=O)c2sc3nccc4c3c2NC(=O)N4c2ccc(Oc3ccccc3)c(Cl)c2)C1 [Example 541]	7.2
COCC(=O)N1CCC[C@@H](NC(=O)c2sc3nccc4c3c2NC(=O)N4c2ccc(Oc3ccccc3)cc2)C1 [Example 576]	7.3
C=CC(=O)N1CC[C@H](C(=O)Nc2sc3nccc4c3c2NC(=O)N4c2ccc(Oc3ccccc3)cc2C)C1 [Example 544]	7.0
Cc1cc(Oc2ccccc2)ccc1N1C(=O)Nc2c(C(=O)N[C@H]3CNC(=O)C3)sc3nccc1c23 (single isomer, unassigned) [Example 472]	7.4
O=C1CCC(NC(=O)c2sc3nccc4c3c2NC(=O)N4c2ccc(Oc3ccccc3)cc2)CN1 (stereo not drawn) [Example 578]	6.9
Cc1cc(Oc2ccccc2)ccc1N1C(=O)Nc2c(C(=O)N[C@@H]3CCN(C(=O)CCS(C)(=O)=O)C3)sc3nccc1c23 (single isomer, unassigned) [Example 494]	8.0
C=CC(=O)N1CCC[C@@H](NC(=O)c2sc3nccc4c3c2NC(=O)N4c2ccc(Oc3ccccc3)cn2)C1 [Example 513]	8.2
Cc1cc(OC(C)C)ccc1N1C(=O)Nc2c(C(=O)N[C@@H]3CCCN(C)C3)sc3nccc1c23 [Example 332]	5.5
C=CC(=O)N1CCC[C@@H](NC(=O)c2sc3nccc4c3c2NC(=O)N4c2cccc(Cl)c2)C1 [Example 294]	6.1
C=CC(=O)N1CC[C@@H](NC(=O)c2sc3nccc4c3c2NC(=O)N4c2ccc(OC)cc2C)C1 [Example 299]	6.1
C/C=C/C(=O)N1CCC[C@@H](NC(=O)c2sc3nccc4c3c2NC(=O)N4c2ccc(Oc3ccccc3)cc2C)C1 (single isomer, unassigned) [Example 473]	5.9
Cc1cc(Oc2ccccc2)ccc1N1C(=O)Nc2c(C(=O)N[C@@H]3CCN(C(=O)/C=C/CN(C)C)C3)sc3nccc1c23 (single isomer, unassigned) [Example 502]	7.9
O=C(NC1CCCNC1=O)c1sc2nccc3c2c1NC(=O)N3c1ccc(Oc2ccccc2)cc1 (stereo not drawn) [Example 458]	6.2
CCN1CCC[C@@H](NC(=O)c2sc3nccc4c3c2NC(=O)N4c2ccc(Oc3ccccc3C(C)C)cc2C)C1 [Example 320]	6.7
Cc1cc(Oc2ccccc2)ccc1N1C(=O)Nc2c(C(=O)N[C@H]3CCNC(C)C3)sc3nccc1c23 (single isomer, unassigned) [Example 432]	7.0
Cc1cc(Oc2ccc(F)cc2F)ccc1N1C(=O)Nc2c(C(=O)N[C@@H]3CCCN(C)C3)sc3nccc1c23 [Example 302]	6.0
Cc1cc(Oc2ccccc2)ccc1N1C(=O)Nc2c(C(=O)NC[C@H]3CCCN3C)sc3nccc1c23 [Example 285]	6.2
Cc1cc(Oc2ccc(F)cc2)ccc1N1C(=O)Nc2c(C(=O)N[C@@H]3CCCN(C)C3)sc3nccc1c23 [Example 295]	6.1
CC(=O)N1CCC[C@@H](NC(=O)c2sc3nccc4c3c2NC(=O)N4c2ccc(Oc3ccccc3)c(Cl)c2)C1 [Example 582]	6.7
C/C=C(\C#N)C(=O)N1CCC[C@@H](NC(=O)c2sc3nccc4c3c2NC(=O)N4c2ccc(Oc3ccccc3)cc2C)C1 [Example 385]	7.9
Cc1cc(Oc2ccccc2)ccc1N1C(=O)Nc2c(C(=O)NC3COCCN(C#N)C3)sc3nccc1c23 (single isomer, unassigned) [Example 485]	7.9
Cc1cc(Oc2ccccc2)ccc1N1C(=O)Nc2c(C(=O)N[C@@H]3CCCN(C(=O)/C=C/CNS(C)(=O)=O)C3)sc3nccc1c23 [Example 383]	7.2

* * *

Target: unphosphorylated-BTK kinase domain (UP-BTK), GST-tagged human BTK (389-659aa) (Homo sapiens (Human), UniProt Q06187)
Experiment: BTK kinase Lanthascreen binding assay
Settings: Lanthascreen tracer competition, 60 minutes incubation; pIC50 = negative log of the IC50 in molar
measured.endpoint: BTK_I_binding pIC50

compound	BTK_I_binding pIC50
C=CC(=O)N1CC[C@@H](NC(=O)c2sc3nccc4c3c2NC(=O)N4c2cccc(-c3cccc(F)c3F)c2)C1	8.2
C=CC(=O)N1CCC[C@@H](NC(=O)c2sc3nccc4c3c2NC(=O)N4c2ccc(OC(C)C)c(C)c2)C1	5.8
C=CC(=O)N1CCC[C@@H](NC(=O)c2sc3nccc4c3c2NC(=O)N4c2cc(-c3ccccc3)ncn2)C1	8.1
O=C(N[C@@H]1CCCNC1)c1sc2nccc3c2c1NC(=O)N3c1ccc(O)cc1	5.3
CCN1CCCC(C(=O)Nc2sc3nccc4c3c2NC(=O)N4c2ccc(Oc3ccccc3)cc2C)C1 (stereo not shown)	5.8

* * *

Target: unphosphorylated-BTK kinase domain (UP-BTK), GST-tagged human BTK (389-659aa) (Homo sapiens (Human))
Assay: BTK kinase Lanthascreen binding assay
Conditions: pIC50 = negative log of the IC50 in molar; 60 minutes incubation, 50 nM Tracer 236
measured.endpoint: BTK_I_binding pIC50

compound	measured.endpoint	numeric.readout
Cc1cc(Oc2ccccc2)ccc1N1C(=O)Nc2c(C(=O)N[C@H]3CNC[C@@H]3F)sc3nccc1c23	BTK_I_binding pIC50	6.8
CNC(C)(C)/C=C(\C#N)C(=O)N1CCC[C@@H](NC(=O)c2sc3nccc4c3c2NC(=O)N4c2ccc(Oc3ccccc3)cc2C)C1	BTK_I_binding pIC50	6.8
C=CC(=O)N1CC[C@@H](NC(=O)c2sc3nccc4c3c2NC(=O)N4c2ccc(Oc3ccccc3)c(C)c2C)C1	BTK_I_binding pIC50	6.9
CCCN1CCC[C@@H](NC(=O)c2sc3nccc4c3c2NC(=O)N4c2ccc(Oc3ccccc3)cc2C)C1	BTK_I_binding pIC50	6.8
Cc1cc(Oc2ccccc2)ccc1N1C(=O)Nc2c(C(=O)N[C@@H]3CCCN(C(=O)/C(C#N)=C/C(C)(C)N4CCOCC4)C3)sc3nccc1c23 (single isomer, unassigned)	BTK_I_binding pIC50	7.2
C=CC(=O)N1C[C@H](O)C[C@@H](NC(=O)c2sc3nccc4c3c2NC(=O)N4c2ccc(Oc3ccccc3)cc2C)C1 (single isomer, unassigned)	BTK_I_binding pIC50	8.2
Cc1cc(Oc2ccccc2)ccc1N1C(=O)Nc2c(C(=O)N[C@H]3CNC[C@@H]3O)sc3nccc1c23	BTK_I_binding pIC50	7.0
Cc1cc(Oc2ccccc2)ccc1N1C(=O)Nc2c(C(=O)N[C@H]3CNC[C@@H](O)C3)sc3nccc1c23	BTK_I_binding pIC50	6.8
CO[C@@H]1CNC[C@@H]1NC(=O)c1sc2nccc3c2c1NC(=O)N3c1ccc(Oc2ccccc2)cc1C	BTK_I_binding pIC50	6.7
Cc1cc(Oc2ccccc2)ccc1N1C(=O)Nc2c(C(=O)NC3CC4CCN3CC4)sc3nccc1c23 (stereo not shown)	BTK_I_binding pIC50	7.0
Cc1cc(Oc2ccccc2)cc(F)c1N1C(=O)Nc2c(C(=O)N[C@@H]3CCCN(C)C3)sc3nccc1c23	BTK_I_binding pIC50	6.7
C=CC(=O)N1CC(NC(=O)c2sc3nccc4c3c2NC(=O)N4c2ccc(Oc3ccccc3)cc2C)C1	BTK_I_binding pIC50	7.2
Cc1cc(Oc2ccccc2)ccc1N1C(=O)Nc2c(C(=O)N[C@@H]3CCCN(C(=O)/C(C#N)=C/C(C)(C)N4CCCCC4)C3)sc3nccc1c23	BTK_I_binding pIC50	6.9
